# tested-on: Fatty-acid amide hydrolase 1 (Homo sapiens, UniProt O00519)
# Sequence (O00519 whole entry): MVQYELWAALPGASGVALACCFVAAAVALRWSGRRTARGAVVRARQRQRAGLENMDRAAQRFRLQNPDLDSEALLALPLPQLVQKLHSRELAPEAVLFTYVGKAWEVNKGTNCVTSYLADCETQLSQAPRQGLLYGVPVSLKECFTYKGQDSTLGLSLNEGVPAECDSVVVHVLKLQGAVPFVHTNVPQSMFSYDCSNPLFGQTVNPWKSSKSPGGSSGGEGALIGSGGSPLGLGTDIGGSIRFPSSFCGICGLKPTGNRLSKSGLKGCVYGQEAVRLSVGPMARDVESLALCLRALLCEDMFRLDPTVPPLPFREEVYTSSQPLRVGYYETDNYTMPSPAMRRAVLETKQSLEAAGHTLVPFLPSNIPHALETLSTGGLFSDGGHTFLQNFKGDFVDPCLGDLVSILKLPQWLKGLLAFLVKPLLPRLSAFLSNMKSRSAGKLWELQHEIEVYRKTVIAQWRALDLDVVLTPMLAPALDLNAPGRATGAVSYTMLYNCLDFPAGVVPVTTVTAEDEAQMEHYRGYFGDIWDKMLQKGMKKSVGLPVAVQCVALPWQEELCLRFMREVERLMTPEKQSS
# protocol-summary: Inhibition of human recombinant FAAH using AMC arachidonoyl amide as substrate by fluorescence assay
quantity-kind: pIC50
pIC50 field: float, defined as -log10 of concentration (mol/L).

| compound | pIC50 |
| --- | --- |
| CC(C)Cc1ccc(C(C)C(=O)NCCc2c[nH]c3ccc(O)cc23)cc1 (stereo not drawn) | 5.30 |
| CCCCC/C=C\C/C=C\C/C=C\C/C=C\CCCC(=O)NCCc1c[nH]c2ccc(O)cc12 | 4.80 |

Would you kindly look at the next entry?
Asked: Given CC(C(=O)NCCc1c[nH]c2ccc(O)cc12)c1ccc(-c2ccccc2)c(F)c1 (stereo not drawn) , state its recorded pIC50.
Given back: 4.82

The reported numbers originate from ChEMBL document CHEMBL3351449.
